ASSAY TEXT: The drug is tested on Z-001 corresponding to mouse gut metagenome with ENA study accession number: PRJEB37062 and ENA sample accession number: ERS12561801 for biotransformation under anaerobic condition. The drug concentrations were measured over 9 timepoints collected between 0 and 24 hours of incubation by liquid-chromatography-coupled mass spectrometry (LC–MS); further: call rule not given here
ASSAY SETUP: 2 µM
PARAMETER MEASURED: Bacterial Biotransformation

[[record]]
molecule = "CC(C)(C)NCC(O)COc1cccc2c1CC(O)C(O)C2 (stereo unspecified)"
observed = "Compound metabolized"

[[record]]
molecule = "CCOC(=O)[C@H](CCc1ccccc1)N[C@@H](C)C(=O)N1Cc2ccccc2C[C@H]1C(=O)O"
observed = "Compound NOT metabolized"

[[record]]
molecule = "O=P1(N(CCCl)CCCl)NCCCO1 (stereo unspecified) [CYCLOPHOSPHAMIDE ANHYDROUS]"
observed = "Compound NOT metabolized"

[[record]]
molecule = "COc1ccccc1OCCNCC(O)COc1cccc2[nH]c3ccccc3c12 (stereo unspecified)"
observed = "Compound NOT metabolized"

[[record]]
molecule = "O=C1CN2Cc3c(ccc(Cl)c3Cl)N=C2N1 [ANAGRELIDE]"
observed = "Compound NOT metabolized"

[[record]]
molecule = "CC(C)C[C@H]1C(=O)N2CCC[C@H]2[C@]2(O)O[C@](NC(=O)[C@@H]3C=C4c5cccc6[nH]c(Br)c(c56)C[C@H]4N(C)C3)(C(C)C)C(=O)N12.CS(=O)(=O)O [BROMOCRIPTINE MESYLATE]"
observed = "Compound metabolized"

[[record]]
molecule = "C[N+]12CCC(CC1)C(OC(=O)C(O)(c1ccccc1)c1ccccc1)C2.[Br-] (stereo unspecified) [CLIDINIUM BROMIDE]"
observed = "Compound metabolized"

[[record]]
molecule = "C[C@]12CCC(=O)C=C1[C@@H]1C[C@@H]1[C@H]1[C@@H]3[C@@H]4C[C@@H]4[C@@]4(CCC(=O)O4)[C@@]3(C)CC[C@@H]12"
observed = "Compound NOT metabolized"

[[record]]
molecule = "COc1ccnc(C[S+]([O-])c2nc3ccc(OC(F)F)cc3[nH]2)c1OC (stereo unspecified)"
observed = "Compound NOT metabolized"

[[record]]
molecule = "CC1Cc2ccccc2N1NC(=O)c1ccc(Cl)c(S(N)(=O)=O)c1 (stereo unspecified) [INDAPAMIDE]"
observed = "Compound NOT metabolized"

[[record]]
molecule = "CC(=O)O[C@]1(C(C)=O)CC[C@H]2[C@@H]3C=C(C)C4=CC(=O)CC[C@]4(C)[C@H]3CC[C@@]21C [MEGESTROL ACETATE]"
observed = "Compound metabolized"

[[record]]
molecule = "Br.COc1ccc2c(c1)[C@]13CCCC[C@@H]1[C@H](C2)N(C)CC3.O [DEXTROMETHORPHAN HYDROBROMIDE]"
observed = "Compound NOT metabolized"

[[record]]
molecule = "CC(C)NCC(O)COc1ccc(CC(N)=O)cc1 (stereo unspecified)"
observed = "Compound NOT metabolized"

[[record]]
molecule = "CCN1CCCC1CNC(=O)c1cc(S(=O)(=O)CC)c(N)cc1OC (stereo unspecified) [AMISULPRIDE]"
observed = "Compound NOT metabolized"

[[record]]
molecule = "OC(c1cc(C(F)(F)F)nc2c(C(F)(F)F)cccc12)C1CCCCN1 (stereo unspecified)"
observed = "Compound NOT metabolized"

[[record]]
molecule = "N#Cc1ccc2[nH]cc(CCCCN3CCN(c4ccc5oc(C(N)=O)cc5c4)CC3)c2c1"
observed = "Compound metabolized"


* * *

ASSAY TEXT: The drug is tested on Z-029 corresponding to rat gut metagenome with ENA study accession number: PRJEB37062 and ENA sample accession number: ERS12561828 for biotransformation under anaerobic condition. The drug concentrations were measured over 9 timepoints collected between 0 and 24 hours of incubation by liquid-chromatography-coupled mass spectrometry (LC–MS)
ASSAY SETUP: 2 µM
PARAMETER MEASURED: Bacterial Biotransformation

[[record]]
compound = "CC(C)(C)NC[C@H](O)COc1nsnc1N1CCOCC1.O=C(O)/C=C\\C(=O)O [TIMOLOL MALEATE]"
observed = "Compound NOT metabolized"

[[record]]
compound = "C#C[C@]1(OC(C)=O)CC[C@H]2[C@@H]3CCC4=C[C@@H](OC(C)=O)CC[C@@H]4[C@H]3CC[C@@]21C [ETHYNODIOL DIACETATE]"
observed = "Compound NOT metabolized"

[[record]]
compound = "CN1CCCCC1CCN1c2ccccc2Sc2ccc([S+](C)[O-])cc21.O=S(=O)(O)c1ccccc1 (stereo not drawn) [MESORIDAZINE BESYLATE]"
observed = "Compound NOT metabolized"

[[record]]
compound = "CN[C@H]1CC[C@@H](c2ccc(Cl)c(Cl)c2)c2ccccc21"
observed = "Compound NOT metabolized"

[[record]]
compound = "CC(=O)O[C@]1(C(C)=O)CC[C@H]2[C@@H]3C=C(C)C4=CC(=O)CC[C@]4(C)[C@H]3CC[C@@]21C [MEGESTROL ACETATE]"
observed = "Compound NOT metabolized"

[[record]]
compound = "CCN(C(C)=O)c1cccc(-c2ccnc3c(C#N)cnn23)c1"
observed = "Compound NOT metabolized"

[[record]]
compound = "CC(=O)OCC(CCn1cnc2cnc(N)nc21)COC(C)=O"
observed = "Compound NOT metabolized"


* * *

ASSAY TEXT: The drug is tested on WLS-090 corresponding to human gut metagenome with ENA study accession number: PRJEB37062 and ENA sample accession number: ERS12561753 for biotransformation under anaerobic condition. The drug concentrations were measured over 9 timepoints collected between 0 and 24 hours of incubation by liquid-chromatography-coupled mass spectrometry (LC–MS)
ASSAY SETUP: 2 µM
PARAMETER MEASURED: Bacterial Biotransformation

[[record]]
molecule = "O=C1N=C([O-])NC1(c1ccccc1)c1ccccc1.[Na+] [PHENYTOIN SODIUM]"
parameter_measured = "Bacterial Biotransformation"
observed = "Compound metabolized"

[[record]]
molecule = "Clc1cccc(Cl)c1N=C1NCCN1 [CLONIDINE]"
parameter_measured = "Bacterial Biotransformation"
observed = "Compound metabolized"

[[record]]
molecule = "CN(C)C(=O)Oc1cccc([N+](C)(C)C)c1.[Br-] [NEOSTIGMINE BROMIDE]"
parameter_measured = "Bacterial Biotransformation"
observed = "Compound NOT metabolized"

[[record]]
molecule = "CCCN(CCC)CCc1cccc2c1CC(=O)N2 [ROPINIROLE]"
parameter_measured = "Bacterial Biotransformation"
observed = "Compound metabolized"

[[record]]
molecule = "Nc1nc(N)nc(-c2cc(Cl)ccc2Cl)n1.O=C(O)/C=C\\C(=O)O [IRSOGLADINE MALEATE]"
parameter_measured = "Bacterial Biotransformation"
observed = "Compound NOT metabolized"

[[record]]
molecule = "OC(c1cc(C(F)(F)F)nc2c(C(F)(F)F)cccc12)C1CCCCN1 (stereo unspecified) [MEFLOQUINE]"
parameter_measured = "Bacterial Biotransformation"
observed = "Compound metabolized"

[[record]]
molecule = "N[C@@H](Cc1ccc(N(CCCl)CCCl)cc1)C(=O)O"
parameter_measured = "Bacterial Biotransformation"
observed = "Compound metabolized"

[[record]]
molecule = "O=C(O)CCC(=O)O.O=C(O[C@H]1CN2CCC1CC2)N1CCc2ccccc2[C@@H]1c1ccccc1 [SOLIFENACIN SUCCINATE]"
parameter_measured = "Bacterial Biotransformation"
observed = "Compound metabolized"

[[record]]
molecule = "CC(=O)O[C@H]1C(=O)[C@@]2(C)[C@H]([C@H](OC(=O)c3ccccc3)[C@]3(O)C[C@H](OC(=O)[C@H](O)[C@@H](NC(=O)c4ccccc4)c4ccccc4)C(C)=C1C3(C)C)[C@]1(OC(C)=O)CO[C@@H]1C[C@@H]2O [PACLITAXEL]"
parameter_measured = "Bacterial Biotransformation"
observed = "Compound NOT metabolized"

[[record]]
molecule = "COc1cc2nc(N3CCN(C(=O)C4COc5ccccc5O4)CC3)nc(N)c2cc1OC.CS(=O)(=O)O (stereo unspecified) [DOXAZOSIN MESYLATE]"
parameter_measured = "Bacterial Biotransformation"
observed = "Compound metabolized"

[[record]]
molecule = "Nc1nnc(-c2cccc(Cl)c2Cl)c(N)n1 [LAMOTRIGINE]"
parameter_measured = "Bacterial Biotransformation"
observed = "Compound metabolized"

[[record]]
molecule = "CCN(CC)CCNC(=O)c1ccc(NC(C)=O)cc1 [ACECAINIDE]"
parameter_measured = "Bacterial Biotransformation"
observed = "Compound metabolized"

[[record]]
molecule = "COc1cc(C(=O)NCc2ccc(OCCN(C)C)cc2)cc(OC)c1OC [TRIMETHOBENZAMIDE]"
parameter_measured = "Bacterial Biotransformation"
observed = "Compound NOT metabolized"

[[record]]
molecule = "CN[C@H]1CC[C@@H](c2ccc(Cl)c(Cl)c2)c2ccccc21 [SERTRALINE]"
parameter_measured = "Bacterial Biotransformation"
observed = "Compound metabolized"

[[record]]
molecule = "CN(C)C(=O)Oc1cc(OC(=O)N(C)C)cc(C(O)CNC(C)(C)C)c1 (stereo unspecified) [BAMBUTEROL]"
parameter_measured = "Bacterial Biotransformation"
observed = "Compound metabolized"

[[record]]
molecule = "C=CC[C@@H]1/C=C(\\C)C[C@H](C)C[C@H](OC)[C@H]2O[C@@](O)(C(=O)C(=O)N3CCCC[C@H]3C(=O)O[C@H](/C(C)=C/[C@@H]3CC[C@@H](O)[C@H](OC)C3)[C@H](C)[C@@H](O)CC1=O)[C@H](C)C[C@@H]2OC.O [TACROLIMUS]"
parameter_measured = "Bacterial Biotransformation"
observed = "Compound metabolized"

